experimentalConditions: in acetonitrile, 308.57 K
readoutKind: solubility (mole fraction)
Reply with the value as a number alone.

Q. Recorded solubility (mole fraction) of O=P1(Oc2ccccc2)OCC2(CO1)COP(=O)(Oc1ccccc1)OC2 (stereo unspecified) , please.
A. 0.00273

---

experimentalConditions: in cyclohexane, 308.17 K
readoutKind: solubility (mole fraction)

Q. Recorded solubility (mole fraction) of O=P1(O)OCC2(CO1)COP(=O)(O)OC2 (stereo unspecified) , please.
A. 0.00025

---

experimentalConditions: in acetic acid, 318.18 K
readoutKind: solubility (mole fraction)
Reply with the value as a number alone.

Q. Recorded solubility (mole fraction) of O=P1(O)OCC2(CO1)COP(=O)(O)OC2 (stereo unspecified) , please.
A. 0.00048
